- SYSTEM UNDER TEST: GPR3 (Homo sapiens, UniProt P46089)
- Sequence (P46089 whole entry): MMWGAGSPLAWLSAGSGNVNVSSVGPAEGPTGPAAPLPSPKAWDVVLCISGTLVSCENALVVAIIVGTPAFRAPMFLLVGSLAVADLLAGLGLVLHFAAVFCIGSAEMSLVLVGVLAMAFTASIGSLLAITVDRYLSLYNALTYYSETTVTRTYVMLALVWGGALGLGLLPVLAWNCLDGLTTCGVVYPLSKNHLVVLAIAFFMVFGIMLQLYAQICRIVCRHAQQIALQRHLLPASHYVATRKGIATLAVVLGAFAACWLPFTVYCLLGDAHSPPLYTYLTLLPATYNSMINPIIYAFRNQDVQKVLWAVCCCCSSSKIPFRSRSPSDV
- ASSAY PROTOCOL: Inhibition of OA-induced GPR3 activation, GloSensor cAMP assay in GPR3 stably expressing AD293 cell line
- EXPERIMENTAL SETUP: OA concentration fixed at 300 μM; read-out: IC50 of OA-induced receptor activation
VALUE KIND: IC50 (µM)
Write the number in µM without appending the unit.

## Task Item under review: "CC(C)Oc1cc(Cl)ccc1CNc1cc(-c2ccccc2)nc2ncnn12" . Reported IC50?
## Result 0.171

---

- SYSTEM UNDER TEST: GPR3 F120A mutant (Homo sapiens, UniProt P46089, F120A)
- Construct: expressed in transfected cells
- Sequence (P46089 whole entry F120A): as the sequence (P46089 whole entry) above, with F120A counted along it
- ASSAY PROTOCOL: OA dose-response, GloSensor cAMP assay, AD293 stably expressing GPR3 F120A mutant
- Type: cell-based
- EXPERIMENTAL SETUP: Table S3, F120A
VALUE KIND: EC50 (µM)
Write the number in µM without appending the unit.

## Task Quick check: EC50 on GPR3 F120A mutant (Homo sapiens, UniProt P46089, F120A), item CCCCCCCC/C=C\CCCCCCCC(=O)O [OA, oleic acid] ?
## Result 252
